Form: system (DHODH (Homo sapiens (Human), UniProt Q02127)), quantity (IC50), values below.

// IC50 (DHODH (Homo sapiens (Human), UniProt Q02127)) for Cc1nc2c(C(=O)O)cc(-c3ccc(-c4cccc(F)c4F)cc3)cc2[nH]1 = > 100 nM

Record for Cc1nc2c(C(=O)O)cc(-c3ccc(-c4cccc(CO)c4)cc3)cc2[nH]1 under target or system DHODH (Homo sapiens (Human), UniProt Q02127): IC50 reported as 10 to 99 nM

Record Cc1nc2c(C(=O)O)cc(-c3c(F)c(F)c(-c4cccc(CN5CCCCC5)c4)c(F)c3F)cc2[nH]1 / DHODH (Homo sapiens (Human), UniProt Q02127), IC50 recorded as 1 to 9.9 nM

Item: Cc1nc2c(C(=O)O)cc(-c3ccc(-c4ccccc4CN4CCOCC4)cc3)cc2[nH]1 | System: DHODH (Homo sapiens (Human), UniProt Q02127) | IC50: 10 to 99 nM

Tested system DHODH (Homo sapiens (Human), UniProt Q02127); IC50 recorded for COc1ccccc1-c1ccc(-c2cc(C(=O)O)c3nc(C)[nH]c3c2)cc1 was 10 to 99 nM

The reported DHODH (Homo sapiens (Human), UniProt Q02127) IC50 of Cc1nc2c(C(=O)O)cc(-c3ccc(-c4ccccc4OCc4ccccc4)cc3)cc2[nH]1 is 10 to 99 nM

# IC50 measured on DHODH (Homo sapiens (Human), UniProt Q02127) for item Cc1nc2c(C(=O)O)cc(-c3ccc(-c4cccc(O)c4)cc3)cc2[nH]1 = 10 to 99 nM

# value of IC50, DHODH (Homo sapiens (Human), UniProt Q02127), item COc1cccc(-c2ccc(-c3cc(C(=O)O)c4nc(C)[nH]c4c3)cc2)c1F = 10 to 99 nM

* * *

pIC50: −log10 of the molar value.
Would you kindly list pIC50 for each of these compounds?

pIC50 value, target or system DHODH (Homo sapiens (Human)), for Cc1nc2c(C(=O)O)cc(-c3c(F)c(F)c(-c4ccc(CN5CCCC5)cc4)c(F)c3F)cc2[nH]1 : 7.00 to 8.00

Cc1nc2c(C(=O)O)cc(-c3c(F)c(F)c(-c4ccccc4)c(F)c3F)cc2[nH]1 tested on DHODH (Homo sapiens (Human)) gave pIC50: 8.00 to 9.00

The reported DHODH (Homo sapiens (Human)) pIC50 of Cc1nc2c(C(=O)O)cc(-c3c(F)c(F)c(-c4cccc(CNC5CC5)c4)c(F)c3F)cc2[nH]1 is 8.00 to 9.00

Value (pIC50, DHODH (Homo sapiens (Human))) for record Cc1nc2c(C(=O)O)cc(-c3c(F)c(F)c(-c4ccc(CN5CCCCC5)cc4)c(F)c3F)cc2[nH]1 = 8.00 to 9.00

Readout pIC50 for Cc1nc2c(C(=O)O)cc(-c3c(F)c(F)c(-c4ccc(CN5CCS(=O)(=O)CC5)cc4)c(F)c3F)cc2[nH]1 , test system DHODH (Homo sapiens (Human)), was 8.00 to 9.00

Assay DHODH (Homo sapiens (Human)), sample Cc1nc2c(C(=O)O)cc(-c3c(F)c(F)c(-c4cccc(CO)c4)c(F)c3F)cc2[nH]1 , pIC50 read: 8.00 to 9.00

// compound Cc1nc2c(C(=O)O)cc(-c3ccc(-c4cccc(CN5CCS(=O)(=O)CC5)c4)cc3)cc2[nH]1 , assay DHODH (Homo sapiens (Human)), pIC50 value: 7.00 to 8.00
